Exercise: for every item that follows, state its recorded TGI.
- Test system: HCC-2998 colon
- protocol_text: NCI tumour cell line growth inhibition, 48 h

Example entries and their recorded answers appear below.
Problem: Entry under review: "CCCSc1cc(Cl)c(C)cc1S(=O)(=O)n1ccnc1OCCCN(C)C" . Reported TGI?
Result: > 100 µM

Problem: For the molecule shown here, "Cc1ccccc1N=C(N)NC#N" , give the reported TGI.
Result: > 100 µM

Problem: Quick one: TGI for "O=c1ccc2nc(-c3ccccc3)nn(-c3ccccc3)c-2c1" ?
Result: 12.3 µM

Problem: Report TGI for CC1(CCCC2(C)CCNC2=O)OCCO1 (stereo unspecified) please.
Result: > 10 µM

Problem: Reported TGI, molecule "CSC1=Nc2ccccc2-c2nc(-c3ccccc3)cc(-c3ccccc3)c2C1" : ____
Result: > 100 µM

Now look at this entry.
Problem: Dear colleague, I am looking for the recorded TGI of the following molecule: "N#CCCNCCN(CCN(C(=O)Nc1ccccc1)c1ccccc1)C(=O)Nc1ccccc1"
Result: 36 µM
